Measured koff accompanies every entry in the list below.
measurement target: T1, recombinant cynomolgus monkey IL-13 (cynomolgus monkey, UniProt Q0PW92 21-132)
T1 construct: bought; also called rc-IL-13; cIL-13
T1 sequence (Q0PW92 entry or part of it): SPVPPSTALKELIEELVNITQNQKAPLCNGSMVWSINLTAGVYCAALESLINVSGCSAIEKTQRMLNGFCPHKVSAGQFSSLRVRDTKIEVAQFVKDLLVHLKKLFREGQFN
measurement notes: SPR
Please reply with the bare figure in s⁻¹ and do not write the unit itself.

Example entries and their recorded answers appear below.
[[record]]
binder = "BDG38.096 (antibody, V domains shown, IgG1) VH: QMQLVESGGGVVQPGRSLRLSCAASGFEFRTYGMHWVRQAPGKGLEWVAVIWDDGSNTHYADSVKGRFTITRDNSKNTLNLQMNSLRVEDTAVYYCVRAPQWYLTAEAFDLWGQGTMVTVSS VL: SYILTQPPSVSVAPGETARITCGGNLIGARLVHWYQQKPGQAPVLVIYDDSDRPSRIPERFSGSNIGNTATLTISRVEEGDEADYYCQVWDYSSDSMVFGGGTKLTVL"
unit_descriptor = "s⁻¹"
recorded_number = 0.00242

[[record]]
binder = "BDG38.125 (antibody, V domains shown, IgG1) VH: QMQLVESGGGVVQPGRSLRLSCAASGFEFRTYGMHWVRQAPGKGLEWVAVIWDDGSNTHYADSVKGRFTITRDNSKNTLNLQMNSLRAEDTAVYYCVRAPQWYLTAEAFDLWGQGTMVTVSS VL: SYVLTQPPSVSVAPGETATITCGGNLIGARLVHWYQQKPGQAPVLVIYDDSDRPSRIPERFSGSNIGNTATLTIERVEEGDEADYYCQVWDYSSDHMVFGGGTKLTVL"
unit_descriptor = "s⁻¹"
recorded_number = 0.00135

[[record]]
binder = "BDG38.076 (antibody, V domains shown, IgG1) VH: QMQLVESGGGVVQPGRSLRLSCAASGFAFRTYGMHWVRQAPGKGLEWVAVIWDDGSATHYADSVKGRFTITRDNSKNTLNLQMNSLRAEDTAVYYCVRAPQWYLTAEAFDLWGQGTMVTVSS VL: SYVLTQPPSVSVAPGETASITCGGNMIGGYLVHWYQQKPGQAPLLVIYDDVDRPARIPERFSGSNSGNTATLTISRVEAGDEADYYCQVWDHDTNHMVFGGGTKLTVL"
unit_descriptor = "s⁻¹"
recorded_number = 0.00671

[[record]]
binder = "BDG38.090 (antibody, V domains shown, IgG1) VH: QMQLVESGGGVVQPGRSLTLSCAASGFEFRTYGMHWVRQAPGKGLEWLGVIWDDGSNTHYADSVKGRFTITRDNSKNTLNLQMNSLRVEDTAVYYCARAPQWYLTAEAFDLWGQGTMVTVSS VL: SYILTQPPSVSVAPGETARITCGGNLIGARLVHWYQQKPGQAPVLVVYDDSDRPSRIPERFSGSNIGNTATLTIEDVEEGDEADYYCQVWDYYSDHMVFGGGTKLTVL"
unit_descriptor = "s⁻¹"
recorded_number = 0.00187

[[record]]
binder = "BDG38.128 (antibody, V domains shown, IgG1) VH: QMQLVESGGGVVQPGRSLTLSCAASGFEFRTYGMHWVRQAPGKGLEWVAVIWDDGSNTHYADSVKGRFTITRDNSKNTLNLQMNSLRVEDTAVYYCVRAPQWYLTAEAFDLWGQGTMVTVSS VL: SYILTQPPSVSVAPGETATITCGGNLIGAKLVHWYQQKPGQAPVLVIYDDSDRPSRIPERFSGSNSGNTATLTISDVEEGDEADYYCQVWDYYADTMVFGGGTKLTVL"
unit_descriptor = "s⁻¹"
recorded_number = 0.00309


// field: koff; key: BDG38.116 (antibody, V domains shown, IgG1) VH: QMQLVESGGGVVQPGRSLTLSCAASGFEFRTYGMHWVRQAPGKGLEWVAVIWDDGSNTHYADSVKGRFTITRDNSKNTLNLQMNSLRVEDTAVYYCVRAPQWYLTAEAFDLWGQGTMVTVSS VL: SYVLTQPPSVSVAPGQTATITCGGNLIGARLVHWYQQKPGQAPVLVIYDDSDRPSRIPERFSGSNIGNTATLTIERVEAGDEADYYCQVWDYYSDTMVFGGGTKLTVL ; value = 0.000847

koff for BDG38.140 (antibody, V domains shown, IgG1) VH: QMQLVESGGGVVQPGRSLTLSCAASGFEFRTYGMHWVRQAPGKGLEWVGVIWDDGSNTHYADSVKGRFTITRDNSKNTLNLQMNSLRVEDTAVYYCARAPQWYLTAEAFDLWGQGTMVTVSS VL: SYILTQPPSVSVAPGETATITCGGNLIGAKLVHWYQQKPGQAPVLVIYDDSDRPSRIPERFSGSNIGNTATLTIEDVEAGDEADYYCQVWDYSANHMVFGGGTKLTVL is 0.00131

koff reading for BDG38.081 (antibody, V domains shown, IgG1) VH: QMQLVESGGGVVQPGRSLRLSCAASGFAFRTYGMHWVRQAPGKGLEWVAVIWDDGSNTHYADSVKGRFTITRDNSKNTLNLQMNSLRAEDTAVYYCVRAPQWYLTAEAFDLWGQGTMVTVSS VL: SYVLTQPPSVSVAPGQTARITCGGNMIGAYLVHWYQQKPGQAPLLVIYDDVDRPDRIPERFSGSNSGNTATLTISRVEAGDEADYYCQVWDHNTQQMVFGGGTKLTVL : 0.00675

Field koff (entry BDG38.129 (antibody, V domains shown, IgG1) VH: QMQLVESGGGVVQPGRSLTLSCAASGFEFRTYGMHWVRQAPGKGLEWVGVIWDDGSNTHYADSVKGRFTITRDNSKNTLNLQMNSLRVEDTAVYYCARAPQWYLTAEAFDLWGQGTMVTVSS VL: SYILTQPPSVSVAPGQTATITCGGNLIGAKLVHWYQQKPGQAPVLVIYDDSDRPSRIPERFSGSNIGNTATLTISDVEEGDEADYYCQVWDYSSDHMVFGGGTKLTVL ) reads 0.0014

Reported koff for BDG38.117 (antibody, V domains shown, IgG1) VH: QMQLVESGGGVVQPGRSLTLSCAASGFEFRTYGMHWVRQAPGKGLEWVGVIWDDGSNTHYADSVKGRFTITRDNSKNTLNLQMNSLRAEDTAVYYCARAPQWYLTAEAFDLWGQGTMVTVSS VL: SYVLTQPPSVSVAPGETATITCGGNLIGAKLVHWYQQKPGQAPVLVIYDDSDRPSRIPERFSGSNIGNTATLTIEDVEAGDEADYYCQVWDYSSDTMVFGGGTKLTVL was 0.00144
